Kindly supply the reported CC50 values for the records listed here.
Assay: Cellular toxicity in the HIV cell-line (MT-4)
Assay type: cell-based, human
Details: human

Quote CC50 reported for C[C@H](NP(=O)(OC[C@H]1O[C@@H](n2ccc(=O)[nH]c2=O)C2(CC2)[C@@H]1O)Oc1ccc(Cl)cc1)C(=O)OCc1ccccc1 (stereo partly drawn) [Compound 7] please.
> 64 µM

Quote CC50 reported for COC(=O)C(C)(C)NP(=O)(OC[C@H]1O[C@@H](n2ccc(=O)[nH]c2=O)C2(CC2)[C@@H]1O)Oc1ccccc1 (stereo partly drawn) [Compound 27] please.
> 98 µM

Quote CC50 reported for CCCCOC(=O)[C@H](C)NP(=O)(OC[C@H]1O[C@@H](n2ccc(=O)[nH]c2=O)C2(CC2)[C@@H]1O)Oc1cccc2ccccc12 (stereo partly drawn) [Compound 15] please.
> 60 µM

Quote CC50 reported for CC[C@H](NP(=O)(OC[C@H]1O[C@@H](n2ccc(=O)[nH]c2=O)C2(CC2)[C@@H]1O)Oc1ccccc1)C(=O)OCc1ccccc1 (stereo partly drawn) [Compound 21] please.
> 80 µM

Quote CC50 reported for CC(C)COC(=O)[C@H](C)NP(=O)(OC[C@H]1O[C@@H](n2ccc(=O)[nH]c2=O)C2(CC2)[C@@H]1O)Oc1ccccc1 (stereo partly drawn) [Compound 13] please.
> 98 µM

Quote CC50 reported for O=C(CNP(=O)(OC[C@H]1O[C@@H](n2ccc(=O)[nH]c2=O)C2(CC2)[C@@H]1O)Oc1cccc2ccccc12)OCc1ccccc1 (stereo partly drawn) [Compound 6] please.
> 98 µM

====

Experiment: Cellular toxicity in Huh7-CMV-Luc replicon assay
Assay type: cell-based
Details: human, Huh7-CMV-Luc cells, three days incubation, Luc activity; read-out: CC50 (μM) (Huh-7)
Kindly supply the reported CC50 at 3 days values for the records listed here.

Quote CC50 at 3 days reported for CC(C)COC(=O)[C@H](C)NP(=O)(OC[C@H]1O[C@@H](n2ccc(=O)[nH]c2=O)C2(CC2)[C@@H]1O)Oc1ccccc1 (some centres unmarked) please.
> 98 µM

Quote CC50 at 3 days reported for CCCC(CCC)COC(=O)[C@H](C)NP(=O)(OC[C@H]1O[C@@H](n2ccc(=O)[nH]c2=O)C2(CC2)[C@@H]1O)Oc1ccccc1 (some centres unmarked) please.
> 32 µM

Quote CC50 at 3 days reported for C[C@H](NP(=O)(OC[C@H]1O[C@@H](n2ccc(=O)[nH]c2=O)C2(CC2)[C@@H]1O)Oc1ccc(C(C)(C)C)cc1)C(=O)OCc1ccccc1 (some centres unmarked) please.
> 32 µM

Quote CC50 at 3 days reported for C[C@H](NP(=O)(OC[C@H]1O[C@@H](n2ccc(=O)[nH]c2=O)C2(CC2)[C@@H]1O)Oc1ccc(Cl)cc1)C(=O)OCc1ccccc1 (single isomer, unassigned) [Compound 7a] please.
58.4 µM

Quote CC50 at 3 days reported for Cc1cc(OP(=O)(N[C@@H](C)C(=O)OCc2ccccc2)OC[C@H]2O[C@@H](n3ccc(=O)[nH]c3=O)C3(CC3)[C@@H]2O)c(C(C)C)cc1Cl (some centres unmarked) please.
> 32 µM

Quote CC50 at 3 days reported for C[C@H](NP(=O)(OC[C@H]1O[C@@H](n2ccc(=O)[nH]c2=O)C2(CC2)[C@@H]1O)Oc1ccc2c(ccn2C(=O)OC(C)(C)C)c1)C(=O)OCc1ccccc1 (some centres unmarked) please.
> 32 µM

Quote CC50 at 3 days reported for C[C@H](NP(=O)(OC[C@H]1O[C@@H](n2ccc(=O)[nH]c2=O)C2(CC2)[C@@H]1O)Oc1cccc2ccccc12)C(=O)OCc1ccccc1 (some centres unmarked) please.
> 98 µM

Quote CC50 at 3 days reported for CC[C@H](NP(=O)(OC[C@H]1O[C@@H](n2ccc(=O)[nH]c2=O)C2(CC2)[C@@H]1O)Oc1ccccc1)C(=O)OC(C)C (some centres unmarked) please.
> 98 µM

Quote CC50 at 3 days reported for CC(C)(NP(=O)(OC[C@H]1O[C@@H](n2ccc(=O)[nH]c2=O)C2(CC2)[C@@H]1O)Oc1ccccc1)C(=O)OCc1ccccc1 (some centres unmarked) please.
> 98 µM

Quote CC50 at 3 days reported for CCCCCCCCOC(=O)[C@H](C)NP(=O)(OC[C@H]1O[C@@H](n2ccc(=O)[nH]c2=O)C2(CC2)[C@@H]1O)Oc1ccc(Cl)cc1 (some centres unmarked) please.
> 32 µM

Quote CC50 at 3 days reported for C[C@H](NP(=O)(OC[C@H]1O[C@@H](n2ccc(=O)[nH]c2=O)C2(CC2)[C@@H]1O)Oc1ccc2[nH]ccc2c1)C(=O)OCc1ccccc1 (some centres unmarked) please.
> 32 µM

Quote CC50 at 3 days reported for COC(=O)C(C)(C)NP(=O)(OC[C@H]1O[C@@H](n2ccc(=O)[nH]c2=O)C2(CC2)[C@@H]1O)Oc1ccccc1 (some centres unmarked) please.
> 98 µM

Quote CC50 at 3 days reported for CCOC(=O)[C@H](C)NP(=O)(OC[C@H]1O[C@@H](n2ccc(=O)[nH]c2=O)C2(CC2)[C@@H]1O)Oc1ccccc1 (some centres unmarked) please.
> 98 µM

Quote CC50 at 3 days reported for CCOC(=O)C1(NP(=O)(OC[C@H]2O[C@@H](n3ccc(=O)[nH]c3=O)C3(CC3)[C@@H]2O)Oc2ccccc2)CC1 (some centres unmarked) please.
> 98 µM

Quote CC50 at 3 days reported for C[C@H](NP(=O)(OC[C@H]1O[C@@H](n2ccc(=O)[nH]c2=O)C2(CC2)[C@@H]1O)Oc1ccccc1)C(=O)OCC(C)(C)C (some centres unmarked) please.
> 98 µM

Quote CC50 at 3 days reported for CCCCOC(=O)[C@H](C)NP(=O)(OC[C@H]1O[C@@H](n2ccc(=O)[nH]c2=O)C2(CC2)[C@@H]1O)Oc1cccc2ccccc12 (some centres unmarked) please.
> 98 µM

Quote CC50 at 3 days reported for C[C@H](NP(=O)(OC[C@H]1O[C@@H](n2ccc(=O)[nH]c2=O)C2(CC2)[C@@H]1O)Oc1ccccc1)C(=O)OC1CCCC1 (some centres unmarked) please.
> 98 µM

====

Tested on: Huh7-CMV-Luc cells
Experiment: Cellular toxicity in Huh7-CMV-Luc replicon assay
Type: cell-based
Settings: three days incubation, Luc activity, read-out: CC50 (μM) (Huh-7)
MEASURED PARAMETER: CC50

Provide the reported CC50 (system: Huh7-CMV-Luc cells) for C[C@H](NP(=O)(OC[C@H]1O[C@@H](n2ccc(=O)[nH]c2=O)C2(CC2)[C@@H]1O)Oc1ccc(Cl)cc1)C(=O)OCc1ccccc1 (single isomer, unassigned)
> 98 µM

====

Kindly supply the reported CC50 values for the records listed here.
Assay: Cellular toxicity in the HIV cell-line (MT-4)
Assay type: cell-based, human
Conditions: human

Quote CC50 reported for C[C@H](NP(=O)(OC[C@H]1O[C@@H](n2ccc(=O)[nH]c2=O)C2(CC2)[C@@H]1O)Oc1ccc2c(ccn2C(=O)OC(C)(C)C)c1)C(=O)OCc1ccccc1 (stereo partly drawn) please.
> 32 µM

Quote CC50 reported for CC(C)(NP(=O)(OC[C@H]1O[C@@H](n2ccc(=O)[nH]c2=O)C2(CC2)[C@@H]1O)Oc1ccccc1)C(=O)OCc1ccccc1 (stereo partly drawn) please.
> 98 µM

Quote CC50 reported for CC[C@H](NP(=O)(OC[C@H]1O[C@@H](n2ccc(=O)[nH]c2=O)C2(CC2)[C@@H]1O)Oc1ccccc1)C(=O)OC(C)C (stereo partly drawn) please.
> 98 µM

Quote CC50 reported for CCOC(=O)[C@H](C)NP(=O)(OC[C@H]1O[C@@H](n2ccc(=O)[nH]c2=O)C2(CC2)[C@@H]1O)Oc1ccccc1 (stereo partly drawn) please.
> 98 µM

Quote CC50 reported for C[C@H](NP(=O)(OC[C@H]1O[C@@H](n2ccc(=O)[nH]c2=O)C2(CC2)[C@@H]1O)Oc1ccccc1)C(=O)OC1CCCC1 (stereo partly drawn) please.
> 98 µM

Quote CC50 reported for CCOC(=O)C1(NP(=O)(OC[C@H]2O[C@@H](n3ccc(=O)[nH]c3=O)C3(CC3)[C@@H]2O)Oc2ccc(Cl)cc2)CC1 (stereo partly drawn) please.
> 98 µM

====

Assay: Cellular toxicity in the HIV cell-line (MT-4)
Format: cell-based, human
Conditions: human
MEASURED PARAMETER: CC50

Quote CC50 reported for Cc1cc(OP(=O)(N[C@@H](C)C(=O)OCc2ccccc2)OC[C@H]2O[C@@H](n3ccc(=O)[nH]c3=O)C3(CC3)[C@@H]2O)c(C(C)C)cc1Cl (stereo partly drawn) please.
> 32 µM

Quote CC50 reported for CCOC(=O)C1(NP(=O)(OC[C@H]2O[C@@H](n3ccc(=O)[nH]c3=O)C3(CC3)[C@@H]2O)Oc2ccc(Cl)cc2)CCC1 (stereo partly drawn) please.
> 98 µM

Quote CC50 reported for CCOC(=O)C1(NP(=O)(OC[C@H]2O[C@@H](n3ccc(=O)[nH]c3=O)C3(CC3)[C@@H]2O)Oc2ccccc2)CCC1 (stereo partly drawn) please.
> 98 µM

Quote CC50 reported for C=CCCCCOC(=O)[C@H](C)NP(=O)(OC[C@H]1O[C@@H](n2ccc(=O)[nH]c2=O)C2(CC2)[C@@H]1O)Oc1ccc(CC=C)cc1OC (stereo partly drawn) please.
> 64 µM

Quote CC50 reported for CCOC(=O)[C@H](C)NP(=O)(OC[C@H]1O[C@@H](n2ccc(=O)[nH]c2=O)C2(CC2)[C@@H]1O)Oc1ccc(Cl)cc1 (stereo partly drawn) please.
> 98 µM

Quote CC50 reported for CCC(C)OC(=O)[C@H](C)NP(=O)(OC[C@H]1O[C@@H](n2ccc(=O)[nH]c2=O)C2(CC2)[C@@H]1O)Oc1ccccc1 (stereo partly drawn) please.
> 98 µM
